- assay: Selectivity ratio of IC50 for HFF cells to IC50 for human LNCaP cells
- Assay type: toxicity
- cond: HFF cells versus LNCaP cells, read-out: Ratio IC50
property: selectivity ratio

Consider the compound shown here: CC(=O)OC[C@]12CC[C@H]3[C@@H](C[C@H]4O[C@]45CC=CC(=O)[C@]35C)[C@]1(O)CC[C@@]2(O)[C@@](C)(O)C1CC(C)=C(C)C(=O)O1 (stereo partly specified) What is its recorded selectivity ratio?
115

====

- System: ACHN
- assay: Potentiation of TRAIL-induced antiproliferative activity against human ACHN cells assessed as reduction in cell numbers by measuring IC50 pretreated with compound for 2 hrs followed by TRAIL addition and measured after 24 hrs by MTT assay; note: test concentration or dose not given here
- Type: functional, cell-based
property: IC50 (nM)
Give the quantity in nM, number only.

Please review the following examples before continuing.
1. CC(=O)OC[C@]12CC[C@H]3[C@@H](C[C@H]4O[C@]45[C@@H](OC(C)=O)C=CC(=O)[C@]35C)[C@]1(O)CC[C@@]2(O)[C@@](C)(O)C1CC(C)=C(C)C(=O)O1 (stereo not given in full) :: 250
2. CC(=O)OC[C@]12CC[C@H]3[C@@H](C[C@H]4O[C@]45CC=CC(=O)[C@]35C)[C@]1(O)CC[C@@]2(O)[C@@](C)(O)C1CC(C)=C(C)C(=O)O1 (stereo not given in full) :: 160
3. CC(=O)OC[C@]12CC[C@H]3[C@@H](C[C@H]4O[C@]45[C@H](OC(C)=O)C=CC(=O)[C@]35C)[C@]1(O)CC[C@@]2(O)[C@@](C)(O)C1CC(C)=C(C)C(=O)O1 (stereo not given in full) :: 250
4. CC(=O)OC[C@]12CC[C@H]3[C@@H](C[C@H]4O[C@]45[C@H](O)C=CC(=O)[C@]35C)[C@]1(O)CC[C@@]2(O)[C@@](C)(O)C1CC(C)=C(C)C(=O)O1 (stereo not given in full) :: 270

Consider the compound shown here: CC(=O)OC[C@]12CC[C@H]3[C@@H](CC=C4CC=CC(=O)[C@@]43C)[C@]1(O)CC[C@@]2(O)[C@@](C)(O)C1CC(C)=C(C)C(=O)O1 (stereo not given in full) What is its recorded IC50?
560

====

- System: LNCaP
- assay: Antiproliferative activity against human LNCaP cells assessed as inhibition of cell proliferation incubated for 72 hrs by MTT assay
- Format: functional, cell-based
property: IC50 (nM)
Give the quantity in nM, number only.

1. CC(=O)OC[C@]12CC[C@H]3[C@@H](C[C@@H](O)C4=CC=CC(=O)[C@@]43C)[C@]1(O)CC[C@@]2(O)[C@@](C)(O)C1CC(C)=C(C)C(=O)O1 (stereo not given in full) :: 2960

Now examine the next entry.
Consider the compound shown here: CC(=O)OC[C@]12CC[C@H]3[C@@H](C[C@H](OC(C)=O)C4=CC=CC(=O)[C@@]43C)[C@]1(O)CC[C@@]2(O)[C@@](C)(O)C1CC(C)=C(C)C(=O)O1 (stereo not given in full) What is its recorded IC50?
2000

====

- Tested on: LNCaP
- assay: Antiproliferative activity against human LNCaP cells assessed as inhibition of cell proliferation incubated for 72 hrs by MTT assay
- Format: functional, cell-based
log10(IC50) overview
All values: log10 IC50 [nM].

Please review the following examples before continuing.
1. CC(=O)OC[C@]12CC[C@H]3[C@@H](C[C@H]4O[C@]45[C@@H](OC(C)=O)C=CC(=O)[C@]35C)[C@]1(O)CC[C@@]2(O)[C@@](C)(O)C1CC(C)=C(C)C(=O)O1 (some centres undefined) :: 2.96
2. CC(=O)OC[C@]12CC[C@H]3[C@@H](C[C@H](O)[C@]45O[C@H]4C=CC(=O)[C@]35C)[C@]1(O)CC[C@@]2(O)[C@@](C)(O)C1CC(C)=C(C)C(=O)O1 (some centres undefined) :: 2.72
3. CC(=O)OC[C@]12CC[C@H]3[C@@H](CC=C4[C@@H](O)C=CC(=O)[C@@]43C)[C@]1(O)CC[C@@]2(O)[C@@](C)(O)C1CC(C)=C(C)C(=O)O1 (some centres undefined) :: 2.54
4. CC(=O)OC[C@]12CC[C@H]3[C@@H](C[C@@H](OC(C)=O)C4=CC=CC(=O)[C@@]43C)[C@]1(O)CC[C@@]2(O)[C@@](C)(O)C1CC(C)=C(C)C(=O)O1 (some centres undefined) :: 3.00
5. CC(=O)OC[C@]12CC[C@H]3[C@@H](CC=C4[C@@H](OC(C)=O)C=CC(=O)[C@@]43C)[C@]1(O)CC[C@@]2(O)[C@@](C)(O)C1CC(C)=C(C)C(=O)O1 (some centres undefined) :: 2.83

Consider the molecule shown here: CC(=O)OC[C@]12CC[C@H]3[C@@H](C[C@H]4O[C@]45[C@H](O)C=CC(=O)[C@]35C)[C@]1(O)CC[C@@]2(O)[C@@](C)(O)C1CC(C)=C(C)C(=O)O1 (some centres undefined) What is its recorded log10(IC50)?
3.24

Consider the molecule shown here: CC(=O)OC[C@]12CC[C@H]3[C@@H](C[C@H]4O[C@]45[C@H](OC(C)=O)C=CC(=O)[C@]35C)[C@]1(O)CC[C@@]2(O)[C@@](C)(O)C1CC(C)=C(C)C(=O)O1 (some centres undefined) What is its recorded log10(IC50)?
3.18

Consider the molecule shown here: CC(=O)OC[C@]12CC[C@H]3[C@@H](C[C@H]4O[C@]45[C@@H](O)C=CC(=O)[C@]35C)[C@]1(O)CC[C@@]2(O)[C@@](C)(O)C1CC(C)=C(C)C(=O)O1 (some centres undefined) What is its recorded log10(IC50)?
3.55
